The measurements presented in this section are drawn from patent US20030118612A1.

Target: T1, human G-CSF receptor (human, UniProt Q99062 25-836)
T1 sequence (looked up): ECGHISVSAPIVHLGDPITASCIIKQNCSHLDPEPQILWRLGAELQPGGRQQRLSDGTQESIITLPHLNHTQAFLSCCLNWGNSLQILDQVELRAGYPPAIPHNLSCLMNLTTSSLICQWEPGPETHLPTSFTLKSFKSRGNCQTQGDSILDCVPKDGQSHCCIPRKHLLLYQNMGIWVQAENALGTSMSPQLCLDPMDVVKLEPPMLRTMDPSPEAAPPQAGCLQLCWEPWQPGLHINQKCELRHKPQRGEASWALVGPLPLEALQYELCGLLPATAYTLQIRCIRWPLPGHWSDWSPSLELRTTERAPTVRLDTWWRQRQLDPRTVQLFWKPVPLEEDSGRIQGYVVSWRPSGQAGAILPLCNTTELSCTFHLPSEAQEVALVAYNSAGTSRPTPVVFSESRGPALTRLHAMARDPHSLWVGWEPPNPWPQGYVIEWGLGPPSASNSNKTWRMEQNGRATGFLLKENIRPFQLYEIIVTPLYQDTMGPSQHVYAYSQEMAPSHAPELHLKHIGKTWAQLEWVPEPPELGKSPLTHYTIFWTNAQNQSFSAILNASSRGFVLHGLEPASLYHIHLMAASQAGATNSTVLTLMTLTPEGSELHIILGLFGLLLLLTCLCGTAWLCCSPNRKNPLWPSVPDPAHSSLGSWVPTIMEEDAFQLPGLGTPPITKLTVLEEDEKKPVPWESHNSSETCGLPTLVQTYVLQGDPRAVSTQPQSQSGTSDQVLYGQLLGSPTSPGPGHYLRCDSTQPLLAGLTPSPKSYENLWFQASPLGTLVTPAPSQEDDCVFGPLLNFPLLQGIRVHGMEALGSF
Test: cell-based or functional assay
observation type: EC50 (% of hG-CSF) non-conjugated

Notebook: G-CSF variant K16/23R, non-conjugated (ligand) TPLGPASSLPQSFLLRCLEQVRRIQGDGAALQEKLCATYKLCHPEELVLLGHSLGIPWAPLSSCPSQALQLAGCLSQLHSGLFLYQGLLQALEGISPELGPTLDTLQLDVADFATTIWQQMEELGMAPALQPTQGAMPAFASAFQRRAGGVLVASHLQSFLEVSYRVLRHLAQP , EC50 (% of hG-CSF) non-conjugated read as 100 % of hG-CSF

Notebook: G-CSF variant K16/34/40R Q90K Q120K, non-conjugated (ligand) TPLGPASSLPQSFLLRCLEQVRKIQGDGAALQERLCATYRLCHPEELVLLGHSLGIPWAPLSSCPSQALQLAGCLSQLHSGLFLYQGLLKALEGISPELGPTLDTLQLDVADFATTIWQKMEELGMAPALQPTQGAMPAFASAFQRRAGGVLVASHLQSFLEVSYRVLRHLAQP , EC50 (% of hG-CSF) non-conjugated read as 25 % of hG-CSF

Notebook: G-CSF variant 23R, non-conjugated (ligand) TPLGPASSLPQSFLLKCLEQVRRIQGDGAALQEKLCATYKLCHPEELVLLGHSLGIPWAPLSSCPSQALQLAGCLSQLHSGLFLYQGLLQALEGISPELGPTLDTLQLDVADFATTIWQQMEELGMAPALQPTQGAMPAFASAFQRRAGGVLVASHLQSFLEVSYRVLRHLAQP , EC50 (% of hG-CSF) non-conjugated read as 100 % of hG-CSF

Notebook: G-CSF variant K16/34R, non-conjugated (ligand) TPLGPASSLPQSFLLRCLEQVRKIQGDGAALQERLCATYKLCHPEELVLLGHSLGIPWAPLSSCPSQALQLAGCLSQLHSGLFLYQGLLQALEGISPELGPTLDTLQLDVADFATTIWQQMEELGMAPALQPTQGAMPAFASAFQRRAGGVLVASHLQSFLEVSYRVLRHLAQP , EC50 (% of hG-CSF) non-conjugated read as 100 % of hG-CSF

Notebook: G-CSF variant K16/34/40R D104K, non-conjugated (ligand) TPLGPASSLPQSFLLRCLEQVRKIQGDGAALQERLCATYRLCHPEELVLLGHSLGIPWAPLSSCPSQALQLAGCLSQLHSGLFLYQGLLQALEGISPELGPTLKTLQLDVADFATTIWQQMEELGMAPALQPTQGAMPAFASAFQRRAGGVLVASHLQSFLEVSYRVLRHLAQP , EC50 (% of hG-CSF) non-conjugated read as 10 % of hG-CSF

Notebook: G-CSF variant K16/34/40R S66K, non-conjugated (ligand) TPLGPASSLPQSFLLRCLEQVRKIQGDGAALQERLCATYRLCHPEELVLLGHSLGIPWAPLSSCPKQALQLAGCLSQLHSGLFLYQGLLQALEGISPELGPTLDTLQLDVADFATTIWQQMEELGMAPALQPTQGAMPAFASAFQRRAGGVLVASHLQSFLEVSYRVLRHLAQP , EC50 (% of hG-CSF) non-conjugated read as 20 % of hG-CSF
